protocol.details: total protein half-life in vivo (active degradation + dilution); higher = more stable protein
condition.details: wild type E. coli NCM3722; growth: N-lim chemostat; doubling time 12 h
endpoint: total protein half-life in vivo
Record the result as a number with its unit.

Worked cases, total protein half-life in vivo given:
| monomer.sequence | total protein half-life in vivo |
| --- | --- |
| MIVAFCLYKYFPFGGLQRDFMRIASTVAARGHHVRVYTQSWEGDCPKAFELIQVPVKSHTNHGRNAEYYAWVQNHLKEHPADRVVGFNKMPGLDVYFAADVCYAEKVAQEKGFLYRLTSRYRHYAAFERATFEQGKSTKLMMLTDKQIADFQKHYQTEPERFQILPPGIYPDRKYSEQIPNSREIYRQKNGIKEQQNLLLQVGSDFGRKGVDRSIEALASLPESLRHNTLLFVVGQDKPRKFEALAEKLGVRSNVHFFSGRNDVSELMAAADLLLHPAYQEAAGIVLLEAITAGLPVLTTAVCGYAHYIADANCGTVIAEPFSQEQLNEVLRKALTQSPLRMAWAENARHYADTQDLYSLPEKAADIITGGLDG | 12.3 h |
| MPSFDIVSEVDLQEARNAVDNASREVESRFDFRNVEASFELNDASKTIKVLSESDFQVNQLLDILRAKLLKRGIEGSSLDVPENIVHSGKTWFVEAKLKQGIESATQKKIVKMIKDSKLKVQAQIQGDEIRVTGKSRDDLQAVMAMVRGGDLGQPFQFKNFRD [P0A8E7] | 8.82 h |

Query :: Given MRWQGRRESDNVEDRRNSSGGPSMGGPGFRLPSGKGGLILLIVVLVAGYYGVDLTGLMTGQPVSQQQSTRSISPNEDEAAKFTSVILATTEDTWGQQFEKMGKTYQQPKLVMYRGMTRTGCGAGQSIMGPFYCPADGTVYIDLSFYDDMKDKLGADGDFAQGYVIAHEVGHHVQKLLGIEPKVRQLQQNATQAEVNRLSVRMELQADCFAGVWGHSMQQQGVLETGDLEEALNAAQAIGDDRLQQQSQGRVVPDSFTHGTSQQRYSWFKRGFDSGDPAQCNTFGKSI , state its recorded total protein half-life in vivo.
Result :: 11.2 h

====

Provide the recorded total protein half-life in vivo for the entries that follow.
protocol.details: total protein half-life in vivo (active degradation + dilution); higher = more stable protein
condition.details: wild type E. coli NCM3722; growth: N-lim chemostat; doubling time 6 h
Answers are plain numbers, in h.

Worked examples follow.
| monomer.sequence | total protein half-life in vivo / h |
| --- | --- |
| MRKQWLGICIAAGMLAACTSDDGQQQTVSVPQPAVCNGPIVEISGADPRFEPLNATANQDYQRDGKSYKIVQDPSRFSQAGLAAIYDAEPGSNLTASGEAFDPTQLTAAHPTLPIPSYARITNLANGRMIVVRINDRGPYGNDRVISLSRAAADRLNTSNNTKVRIDPIIVAQDGSLSGPGMACTTVAKQTYALPAPPDLSGGAGTSSVSGPQGDILPVSNSTLKSEDPTGAPVTSSGFLGAPTTLAPGVLEGSEPTPAPQPVVTAPSTTPATSPAMVTPQAVSQSASGNFMVQVGAVSDQARAQQYQQQLGQKFGVPGRVTQNGAVWRIQLGPFASKAEASTLQQRLQTEAQLQSFITTAQ | 6.17 |
| MEQRHITGKSHWYHETQSSTTEYDVLPLVPEAAKVSDPFLLDVILEKETLAPFLSWLDPARVLAVDLFPDQLTVTRSQTFTAYERLSTALTVAQVCGVQRLCNYYSARLTPLPGPDSTRESNHRLAQITQYARQLASSPSIIDNRSRQHLNDVGLTAWDCVIISQIIGFIGFQARTIATFQAYLGHPVRWLPGLEIQNYADASLFADESLRWRSSYEVEKLPEEHTKSSTAELCQLAEILSLHPISLSLLEKLLNSTRGNTQPDNQLAALLCARINGSPACFATCMDSSNEYKKISTLMRKGENEINQWADRHSVERATVQAIQWLTRAPDRFSAAQFSPLLEHEKSSTQIINLLVWSGLCGWINRLKIALGETY | 1.31 |

Okay, now this sequence:
Query :: Can you share its total protein half-life in vivo? I mean this sequence: MSAGRLNKKSLGIVMLLSVGLLLAGCSGSKSSDTGTYSGSVYTVKRGDTLYRISRTTGTSVKELARLNGISPPYTIEVGQKLKLGGAKSSSITRKSTAKSTTKTASVTPSSAVPKSSWPPVGQRCWLWPTTGKVIMPYSTADGGNKGIDISAPRGTPIYAAGAGKVVYVGNQLRGYGNLIMIKHSEDYITAYAHNDTMLVNNGQSVKAGQKIATMGSTDAASVRLHFQIRYRATAIDPLRYLPPQGSKPKC
Result :: 5.64

// provenance: the supplement of paper PMC11246515
